Where these numbers come from: patent US5593984A

# Tested on: E. coli DY-1
# TEST: MIC by agar dilution, E. coli DY-1
# Assay type: cell-based
# RECORDED_CONDITIONS: Escherichia coli, DY1, 17 h; E. coli DY-1; agar dilution, Mueller-Hinton agar; read-out: Minimal Inhibitory Concentration (MIC)
READOUT_NAME: MIC (µg/mL)

Completed entries (count: 3):
>>> df
                                   compound  study_system  readout_name  readout_value
0  CO/N=C(\C(=O)N[C@@H]1C(=O)N2C(C(=O)[O-])=C(C[n+]3ccn4cccc4c3C)CS[C@H]12)c1nsc(N)n1  E. coli DY-1           MIC          0.025
1  CO/N=C(\C(=O)N[C@@H]1C(=O)N2C(C(=O)[O-])=C(C[n+]3ccn4ccc(CO)c4c3)CS[C@H]12)c1nc(N)sc1Cl  E. coli DY-1           MIC          0.025
2  CON=C(C(=O)NC1C(=O)N2C(C(=O)[O-])=C(C[n+]3ccn4c(C(=O)O)ccc4c3)CSC12)c1csc(N)n1 (centres unmarked)  E. coli DY-1           MIC          0.025

[P] CO/N=C(\C(=O)N[C@@H]1C(=O)N2C(C(=O)[O-])=C(C[n+]3ccn4c(C(C)=O)cc(Cl)c4c3)CS[C@H]12)c1csc(N)n1
[Q] CO/N=C(\C(=O)N[C@@H]1C(=O)N2C(C(=O)[O-])=C(C[n+]3ccn4ccc(CO)c4c3)CS[C@H]12)c1nsc(N)n1
[R] CCON=C(C(=O)NC1C(=O)N2C(C(=O)[O-])=C(C[n+]3ccn4c(C=O)ccc4c3)CSC12)c1csc(N)n1 (centres unmarked)
// query Arrange the 3 entries by MIC so the values rise. Would you mind listing the labels in the order requested?
// result Q, P, R
(Q: 0.012 µg/mL, P: 0.025 µg/mL, R: 0.05 µg/mL)

====

# Test system: M. morganii DY-1
# TEST: MIC by agar dilution, M. morganii DY-1
# Format: cell-based
# RECORDED_CONDITIONS: Morganella morganii, DY1, 17 h; M. morganii DY-1; agar dilution, Mueller-Hinton agar; read-out: Minimal Inhibitory Concentration (MIC)
READOUT_NAME: MIC (µg/mL)

Completed entries (count: 6):
>>> df
                                   compound      study_system  readout_name  readout_value
0  CON=C(C(=O)NC1C(=O)N2C(C(=O)[O-])=C(C[n+]3ccn4c(C#N)ccc4c3)CSC12)c1csc(N)n1 (stereo not shown) [Ex. 13]  M. morganii DY-1           MIC          0.025
1  CO/N=C(\C(=O)N[C@@H]1C(=O)N2C(C(=O)[O-])=C(C[n+]3ccn4ccc(CO)c4c3)CS[C@H]12)c1nc(N)sc1Cl [Ex. 54]  M. morganii DY-1           MIC            0.1
2  CCON=C(C(=O)NC1C(=O)N2C(C(=O)[O-])=C(C[n+]3ccn4c(C(N)=O)ccc4c3)CSC12)c1csc(N)n1 (stereo not shown) [Ex. 16]  M. morganii DY-1           MIC          0.025
3  CO/N=C(\C(=O)N[C@@H]1C(=O)N2C(C(=O)[O-])=C(C[n+]3ccn4c(CO)ccc4c3C)CS[C@H]12)c1csc(N)n1 [Ex. 46]  M. morganii DY-1           MIC            0.1
4  CCc1c[n+](CC2=C(C(=O)[O-])N3C(=O)[C@@H](NC(=O)/C(=N\OC)c4csc(N)n4)[C@H]3SC2)cc2cccn12 [Ex. 37]  M. morganii DY-1           MIC          0.025
5  CCO/N=C(\C(=O)N[C@@H]1C(=O)N2C(C(=O)[O-])=C(C[n+]3ccn4c(C(C)=O)cc(Cl)c4c3)CS[C@H]12)c1csc(N)n1 [Ex. 35]  M. morganii DY-1           MIC            0.2

[I] CCON=C(C(=O)NC1C(=O)N2C(C(=O)[O-])=C(C[n+]3ccn4ccc(CO)c4c3)CSC12)c1csc(N)n1 (stereo not shown) [Ex. 31]
[II] CCON=C(C(=O)NC1C(=O)N2C(C(=O)[O-])=C(C[n+]3ccn4c(SCCN)ccc4c3)CSC12)c1csc(N)n1 (stereo not shown) [Ex. 28]
[III] Nc1nc(C(=NOCF)C(=O)NC2C(=O)N3C(C(=O)[O-])=C(C[n+]4ccn5c(SCCO)ccc5c4)CSC23)cs1 (stereo not shown) [Ex. 10]
[IV] CC(C)(ON=C(C(=O)NC1C(=O)N2C(C(=O)[O-])=C(C[n+]3ccn4c(CO)ccc4c3)CSC12)c1csc(N)n1)C(=O)O (stereo not shown) [Ex. 24]
[V] CO/N=C(\C(=O)N[C@@H]1C(=O)N2C(C(=O)[O-])=C(C[n+]3ccn4c(C(C)O)ccc4c3)CS[C@H]12)c1nsc(N)n1 (stereo partly shown) [Ex. 51]
// query Arrange the 5 entries by MIC so the values rise. Would you mind listing the labels in the order requested?
// result III, I, II, V, IV
(III: 0.012 µg/mL, I: 0.025 µg/mL, II: 0.05 µg/mL, V: 0.1 µg/mL, IV: 0.78 µg/mL)
